Test system: kochia (Kochia scoparia)
Test: Test C postemergence greenhouse test, plant response rating 0-100
Assay type: in vivo
Conditions: 125 g ai/ha
Kindly apply the following: Criterion met if Plant response rating (0 to 100), Kochia is less than 80, Criterion not met in every other case.

- record.smiles: "O=C(c1ccccc1)c1cn(S(=O)(=O)CCl)nc1-c1cc(Cl)cc(Cl)c1"
  label: "Criterion not met"

Next up:
Consider the compound O=Cn1cc(C(=O)c2ccccc2)c(-c2cc(Cl)cc(Cl)c2)n1 . Is its Plant response rating (0 to 100), Kochia strictly less than 80? Criterion not met

###

System: galium (catchweed bedstraw, Galium aparine)
Experiment: Test C pre-/postemergence greenhouse test, plant response rating 0-100
Type: in vivo
Conditions: Galium, pre-emergence; Preemergence, 62 g ai/ha; read-out: Plant response rating, Galium
measurement.label: pest or weed control at 62 g/ha
Units required after the number.

Below, each entry is followed by its recorded pest or weed control at 62 g/ha result.
- molecule: "Clc1cc(Cl)cc(-c2n[nH]cc2C(=NN2CCCC2)c2ccccc2)c1 [Compound 30]"
  reported.result: "0%"
- molecule: "Cn1cc(C(=O)c2ccccc2)c(-c2cc(Cl)cc(Cl)c2)n1 [Compound 54]"
  reported.result: "0%"
- molecule: "COC(OC)(c1ccccc1)c1c[nH]nc1-c1cc(Cl)cc(Cl)c1 [Compound 13]"
  reported.result: "60%"

Param item = O=C(c1ccccc1)c1cn(CO)nc1-c1cc(Cl)cc(Cl)c1 [Compound 15] ; retrieve measured pest or weed control at 62 g/ha. 0%

Data origin, for the record: patent US10167262B2
